Notes on Ki obtained with CDK4 (Homo sapiens (Human)).
Sequence (P11802 whole entry): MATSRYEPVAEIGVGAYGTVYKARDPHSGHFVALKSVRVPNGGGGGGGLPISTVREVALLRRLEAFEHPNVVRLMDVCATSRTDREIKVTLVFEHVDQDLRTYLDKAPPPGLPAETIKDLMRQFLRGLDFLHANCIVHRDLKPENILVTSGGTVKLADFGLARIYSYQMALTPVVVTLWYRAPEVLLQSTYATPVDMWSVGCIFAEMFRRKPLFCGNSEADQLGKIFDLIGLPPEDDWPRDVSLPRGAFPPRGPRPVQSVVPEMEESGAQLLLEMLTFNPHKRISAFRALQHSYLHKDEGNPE
Sequence (P24385 whole entry partner): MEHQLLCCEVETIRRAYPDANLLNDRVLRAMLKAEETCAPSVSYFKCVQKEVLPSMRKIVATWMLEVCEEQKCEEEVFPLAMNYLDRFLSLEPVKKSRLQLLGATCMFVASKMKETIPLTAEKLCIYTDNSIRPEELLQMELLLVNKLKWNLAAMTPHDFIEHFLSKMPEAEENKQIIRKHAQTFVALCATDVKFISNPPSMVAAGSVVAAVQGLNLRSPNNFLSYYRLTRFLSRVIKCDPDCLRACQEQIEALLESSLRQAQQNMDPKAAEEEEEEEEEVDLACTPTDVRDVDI
// units = nM; emit number, no label

Examples with answers:
Asked: Which measured Ki value corresponds to `Cc1nc2c(F)cc(-c3nc(Nc4ccc(CN5CCO[C@]6(CCN(C)C6)C5)cn4)ncc3F)cc2n1C(C)C` ?
Given back: 1.47

Asked: Next entry: `Cc1nc2c(F)cc(-c3nc(Nc4ccc(CN5CCO[C@@]6(CCN(S(C)(=O)=O)C6)C5)cn4)ncc3F)cc2n1C(C)C`
Given back: 1.71

Asked: Next entry: `Cc1nc2c(F)cc(-c3nc(Nc4ccc(CN5CCNC(C)(C)C5)cn4)ncc3F)cc2n1C(C)C`
Given back: 0.7

Asked: Next entry: `Cc1nc2c(F)cc(-c3nc(Nc4ccc(CN5CCO[C@](C)(CCN(C)CC(F)F)C5)cn4)ncc3F)cc2n1C(C)C`
Given back: 1.8

More entries:
Asked: Which measured Ki value corresponds to `Cc1nc2c(F)cc(-c3nc(Nc4ccc(CN5CC6(C5)CS(=O)(=O)C6)cn4)ncc3F)cc2n1C(C)C` ?
Given back: 0.59

###

Experiment: Compound Solubility Assay (kinetic solubility)
Type: physicochemical
Details: 50 mM phosphate buffer, pH 7.4, aqueous buffer, kinetic from dmso stock; read-out: KS7
Item-by-item account of log10 of solubility kinetic at 24 h
The figures below represent log10 of solubility kinetic at 24 h, where solubility kinetic at 24 h is stated in µM.

Asked: Which measured log10 of solubility kinetic at 24 h value corresponds to `CCC[C@@]1(C)CN(Cc2ccc(Nc3ncc(F)c(-c4cc(F)c5nc(C)n(C(C)C)c5c4)n3)nc2)CCN1` ?
Given back: 0.00

Asked: Next entry: `COC(=O)N1CC[C@]2(CN(Cc3ccc(Nc4ncc(F)c(-c5cc(F)c6nc(C)n(C(C)C)c6c5)n4)nc3)CCO2)C1`
Given back: 0.40

Asked: Next entry: `Cc1nc2c(F)cc(-c3nc(Nc4ccc(CN5CCO[C@](C)(C[C@@H](C)N(C)C)C5)cn4)ncc3F)cc2n1C(C)C`
Given back: 2.15

Asked: Next entry: `Cc1nc2c(F)cc(-c3nc(Nc4ccc(CN5CCO[C@](C)(CCNCC(F)(F)F)C5)cn4)ncc3F)cc2n1C(C)C`
Given back: 0.00

More entries:
Asked: Which measured log10 of solubility kinetic at 24 h value corresponds to Cc1nc2c(F)cc(-c3nc(Nc4ccc(CN5CCO[C@@](C)(C[C@@H](C)N(C)C)C5)cn4)ncc3F)cc2n1C(C)C [Compound A28, methanesulfonate] ?
Given back: 1.20

Asked: Next entry: `Cc1nc2c(F)cc(-c3nc(Nc4ccc(CN5CC6(C5)CS(=O)(=O)C6)cn4)ncc3F)cc2n1C(C)C`
Given back: 0.00

Asked: Next entry: `CC(=O)N1CC[C@@]2(CN(Cc3ccc(Nc4ncc(F)c(-c5cc(F)c6nc(C)n(C(C)C)c6c5)n4)nc3)CCO2)C1`
Given back: 0.52

Asked: Next entry: `Cc1nc2c(F)cc(-c3nc(Nc4ccc(CN5CCO[C@@]6(CCN(S(C)(=O)=O)C6)C5)cn4)ncc3F)cc2n1C(C)C`
Given back: 0.49

Asked: Next entry: `Cc1nc2c(F)cc(-c3nc(Nc4ccc(CN5CCO[C@](C)(CCN6CCOCC6)C5)cn4)ncc3F)cc2n1C(C)C`
Given back: 2.14

Asked: Next entry: `Cc1nc2c(F)cc(-c3nc(Nc4ccc(CN5CCO[C@](C)(CC(=O)N6CCCC6)C5)cn4)ncc3F)cc2n1C(C)C`
Given back: 0.49

Asked: Next entry: `COC(=O)N1CC[C@@]2(CN(Cc3ccc(Nc4ncc(F)c(-c5cc(F)c6nc(C)n(C(C)C)c6c5)n4)nc3)CCO2)C1`
Given back: 0.31

Asked: Next entry: `Cc1nc2c(F)cc(-c3nc(Nc4ccc(CN5CCO[C@]6(CCN(S(C)(=O)=O)C6)C5)cn4)ncc3F)cc2n1C(C)C`
Given back: 0.20

Asked: Next entry: `Cc1nc2c(F)cc(-c3nc(Nc4ccc(CN5CCO[C@]6(CCN(C)C6)C5)cn4)ncc3F)cc2n1C(C)C`
Given back: 1.61

Asked: Next entry: CCN(CC)CCC1(C)CN(Cc2ccc(Nc3ncc(F)c(-c4cc(F)c5nc(C)n(C(C)C)c5c4)n3)nc2)CCO1 (stereo in doubt)
Given back: 2.21

###

Biological target: UniProt:Q12809
Assay: hERG Inhibition Assay (QPatch automated patch clamp, CHO cells)
Conditions: percent of control current
So basically: is hERG under 20%? Then satisfied. Not under? Then not satisfied.

Previously resolved entries follow.
Asked: Find out if reported hERG for `Cc1nc2c(F)cc(-c3nc(Nc4ccc(CN5CC6(C5)CS(=O)(=O)C6)cn4)ncc3F)cc2n1C(C)C` is less than 20%
Given back: not satisfied

Asked: Next entry: `Cc1nc2c(F)cc(-c3nc(Nc4ccc(CN5CCO[C@@](C)(CCN(C)C)C5)cn4)ncc3F)cc2n1C(C)C`
Given back: satisfied

Asked: Next entry: `CC(=O)N1CC[C@]2(CN(Cc3ccc(Nc4ncc(F)c(-c5cc(F)c6nc(C)n(C(C)C)c6c5)n4)nc3)CCO2)C1`
Given back: satisfied

More entries:
Asked: Find out if reported hERG for `Cc1nc2c(F)cc(-c3nc(Nc4ccc(CN5CCO[C@](C)(CCN6CCCC6)C5)cn4)ncc3F)cc2n1C(C)C` is less than 20%
Given back: satisfied

###

Test system: drug-sensitive cell lines of Table 2 (EFM-19, MDA-MB-453, T-47D, ZR-75-1, NCI-H441, OVTOKO, NCI-H1838)
Test: Cell Line Growth Retardation Assay, sensitive cohort
Assay type: cell-based, human
Details: Homo sapiens, […], geometric mean over sensitive cohort; 6 days growth; read-out: AvgSensIC50
Result type: pIC50
Scale: negative log10 of molar concentration, which is what pIC50 denotes.

Asked: Which measured pIC50 value corresponds to `Cc1nc2c(F)cc(-c3nc(Nc4ccc(CN5CCO[C@]6(CCN(C)C6)C5)cn4)ncc3F)cc2n1C(C)C` ?
Given back: 6.66

Asked: Next entry: `Cc1nc2c(F)cc(-c3nc(Nc4ccc(CN5CCO[C@](C)(CCN6CC(F)(F)C6)C5)cn4)ncc3F)cc2n1C(C)C`
Given back: 6.96

Asked: Next entry: `Cc1nc2c(F)cc(-c3nc(Nc4ccc(CN5CC6(C5)CS(=O)(=O)C6)cn4)ncc3F)cc2n1C(C)C`
Given back: 7.05

Asked: Next entry: `Cc1nc2c(F)cc(-c3nc(Nc4ccc(CN5CCO[C@](C)(CCN6CC[C@H](F)C6)C5)cn4)ncc3F)cc2n1C(C)C`
Given back: 7.10

Asked: Next entry: `Cc1nc2c(F)cc(-c3nc(Nc4ccc(CN5CCO[C@](C)(C[C@@H](C)N(C)C)C5)cn4)ncc3F)cc2n1C(C)C`
Given back: 6.89

Asked: Next entry: `Cc1nc2c(F)cc(-c3nc(Nc4ccc(CN5CCOC(C)(C)C5)cn4)ncc3F)cc2n1C(C)C`
Given back: 6.19

Asked: Next entry: `Cc1nc2c(F)cc(-c3nc(Nc4ccc(CN5CCC56COC6)cn4)ncc3F)cc2n1C(C)C`
Given back: 6.66

Asked: Next entry: `CNCC[C@]1(C)CN(Cc2ccc(Nc3ncc(F)c(-c4cc(F)c5nc(C)n(C(C)C)c5c4)n3)nc2)CCO1`
Given back: 6.74

Asked: Next entry: `Cc1nc2c(F)cc(-c3nc(Nc4ccc(CN5CCO[C@](C)(CCN6CC(C)(O)C6)C5)cn4)ncc3F)cc2n1C(C)C`
Given back: 7.15

Asked: Next entry: `Cc1nc2c(F)cc(-c3nc(Nc4ccc(CN5CCO[C@](C)(CCN6CCOCC6)C5)cn4)ncc3F)cc2n1C(C)C`
Given back: 6.72

Asked: Next entry: `Cc1nc2c(F)cc(-c3nc(Nc4ccc(CN5CCO[C@](C)(C[C@H](C)N(C)C)C5)cn4)ncc3F)cc2n1C(C)C`
Given back: 7.10

Asked: Next entry: `Cc1nc2c(F)cc(-c3nc(Nc4ccc(CN5CCO[C@](C)(CCN6CC[C@@H](F)C6)C5)cn4)ncc3F)cc2n1C(C)C`
Given back: 7.10

Asked: Next entry: `Cc1nc2c(F)cc(-c3nc(Nc4ccc(CN5CCNC(C)(C)C5)cn4)ncc3F)cc2n1C(C)C`
Given back: 7.05

###

Item-by-item account of hERG
Target: hERG potassium channels (Homo sapiens (Human), UniProt Q12809)
Sequence (Q12809 whole entry): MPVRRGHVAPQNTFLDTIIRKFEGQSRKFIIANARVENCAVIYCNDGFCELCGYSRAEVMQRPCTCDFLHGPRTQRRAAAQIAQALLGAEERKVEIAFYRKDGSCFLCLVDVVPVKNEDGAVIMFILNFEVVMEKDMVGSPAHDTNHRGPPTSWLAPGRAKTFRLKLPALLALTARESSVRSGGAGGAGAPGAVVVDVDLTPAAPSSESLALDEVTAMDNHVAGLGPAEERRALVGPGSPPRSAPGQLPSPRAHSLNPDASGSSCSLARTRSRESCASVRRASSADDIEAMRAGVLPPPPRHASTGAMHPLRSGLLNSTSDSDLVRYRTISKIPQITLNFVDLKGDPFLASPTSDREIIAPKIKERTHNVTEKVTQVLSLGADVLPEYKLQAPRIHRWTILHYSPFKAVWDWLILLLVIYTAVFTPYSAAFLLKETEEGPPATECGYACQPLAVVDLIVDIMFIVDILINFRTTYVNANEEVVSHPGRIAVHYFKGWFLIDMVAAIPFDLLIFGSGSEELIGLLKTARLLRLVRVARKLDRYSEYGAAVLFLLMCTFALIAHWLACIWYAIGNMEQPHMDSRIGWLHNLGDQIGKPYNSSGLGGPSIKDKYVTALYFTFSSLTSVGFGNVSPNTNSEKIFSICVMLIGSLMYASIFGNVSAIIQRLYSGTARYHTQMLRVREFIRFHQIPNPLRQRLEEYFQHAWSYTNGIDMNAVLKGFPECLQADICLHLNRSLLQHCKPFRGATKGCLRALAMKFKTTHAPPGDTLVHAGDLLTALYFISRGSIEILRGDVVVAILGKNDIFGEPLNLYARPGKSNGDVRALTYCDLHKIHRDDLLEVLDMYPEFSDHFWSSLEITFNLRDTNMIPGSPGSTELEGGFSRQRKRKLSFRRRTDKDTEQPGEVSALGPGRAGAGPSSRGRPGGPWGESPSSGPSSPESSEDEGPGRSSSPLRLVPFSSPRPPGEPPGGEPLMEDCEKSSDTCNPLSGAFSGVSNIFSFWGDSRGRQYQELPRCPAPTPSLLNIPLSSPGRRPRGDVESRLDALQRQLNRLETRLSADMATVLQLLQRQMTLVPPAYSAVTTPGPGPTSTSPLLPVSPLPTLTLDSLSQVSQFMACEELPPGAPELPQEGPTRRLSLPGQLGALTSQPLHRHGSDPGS
Assay: hERG Inhibition Assay (QPatch automated patch clamp, CHO cells)
Settings: percent of control current
// units = %; emit number, no label

Examples with answers:
Asked: Which measured hERG value corresponds to `Cc1nc2c(F)cc(-c3nc(Nc4ccc(CN5CCO[C@](C)(CC(=O)N(C)C)C5)cn4)ncc3F)cc2n1C(C)C` ?
Given back: 26.03

Asked: Next entry: `CC(=O)N(C)CC[C@]1(C)CN(Cc2ccc(Nc3ncc(F)c(-c4cc(F)c5nc(C)n(C(C)C)c5c4)n3)nc2)CCO1`
Given back: 11.87

Asked: Next entry: `Cc1nc2c(F)cc(-c3nc(Nc4ccc(CN5CCO[C@](C)(C[C@H](C)N(C)C)C5)cn4)ncc3F)cc2n1C(C)C`
Given back: 24.78

Asked: Next entry: `CC(=O)N1CC[C@@]2(CN(Cc3ccc(Nc4ncc(F)c(-c5cc(F)c6nc(C)n(C(C)C)c6c5)n4)nc3)CCO2)C1`
Given back: 21.60

Asked: Next entry: `COC1(C)CN(CC[C@]2(C)CN(Cc3ccc(Nc4ncc(F)c(-c5cc(F)c6nc(C)n(C(C)C)c6c5)n4)nc3)CCO2)C1`
Given back: 21.45

More entries:
Asked: Which measured hERG value corresponds to `COC(=O)N1CC[C@@]2(CN(Cc3ccc(Nc4ncc(F)c(-c5cc(F)c6nc(C)n(C(C)C)c6c5)n4)nc3)CCO2)C1` ?
Given back: 18.72

Asked: Next entry: `Cc1nc2c(F)cc(-c3nc(Nc4ccc(CN5CCO[C@]6(CCN(C)C6)C5)cn4)ncc3F)cc2n1C(C)C`
Given back: 10.65

Asked: Next entry: `Cc1nc2c(F)cc(-c3nc(Nc4ccc(CN5CCN(C)C(C)(C)C5)cn4)ncc3F)cc2n1C(C)C`
Given back: 12.12

Asked: Next entry: `CC[C@@]1(CCN(C)C)CN(Cc2ccc(Nc3ncc(F)c(-c4cc(F)c5nc(C)n(C(C)C)c5c4)n3)nc2)CCO1`
Given back: 32.36

Asked: Next entry: `Cc1nc2c(F)cc(-c3nc(Nc4ccc(CN5CCO[C@](C)(CCN6CCOCC6)C5)cn4)ncc3F)cc2n1C(C)C`
Given back: 18.14

Asked: Next entry: `Cc1nc2c(F)cc(-c3nc(Nc4ccc(CN5CCO[C@@](C)(C[C@H](C)N(C)C)C5)cn4)ncc3F)cc2n1C(C)C`
Given back: 15.77

Asked: Next entry: `Cc1nc2c(F)cc(-c3nc(Nc4ccc(CN5CCO[C@](C)(CC(=O)N6CCCC6)C5)cn4)ncc3F)cc2n1C(C)C`
Given back: 28

Asked: Next entry: CCN(CC)CCC1(C)CN(Cc2ccc(Nc3ncc(F)c(-c4cc(F)c5nc(C)n(C(C)C)c5c4)n3)nc2)CCO1 (stereo in doubt)
Given back: 26.68

Asked: Next entry: Cc1nc2c(F)cc(-c3nc(Nc4ccc(CN5CCO[C@@](C)(C[C@@H](C)N(C)C)C5)cn4)ncc3F)cc2n1C(C)C [Compound A28, methanesulfonate]
Given back: 6.78

Asked: Next entry: `Cc1nc2c(F)cc(-c3nc(Nc4ccc(CN5CCO[C@](C)(CCNCC(F)F)C5)cn4)ncc3F)cc2n1C(C)C`
Given back: 32.76

Asked: Next entry: `Cc1nc2c(F)cc(-c3nc(Nc4ccc(CN5CCO[C@](C)(C[C@@H](C)N(C)C)C5)cn4)ncc3F)cc2n1C(C)C`
Given back: 39.08

Asked: Next entry: `Cc1nc2c(F)cc(-c3nc(Nc4ccc(CN5CCO[C@](C)(CCN(C)CC(F)F)C5)cn4)ncc3F)cc2n1C(C)C`
Given back: 25.45

Asked: Next entry: `CCC[C@@]1(C)CN(Cc2ccc(Nc3ncc(F)c(-c4cc(F)c5nc(C)n(C(C)C)c5c4)n3)nc2)CCN1`
Given back: 21.76
